tested-system: T1, V domain of human CD33 (human, UniProt P20138 18-139, limits assumed)
T1 construct: recombinant, fully glycosylated V domain; also called Human CD33 V domain
protocol-notes: SPR, Fab captured, 37C;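 also: biacore 8K surface plasmon resonance with Fabs held on an amine-coupled anti-Fab antibody surface, soluble monomeric CD33 domain injected as analyte, double-referenced 1:1 binding fit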
observed-property: Kd (nM)
Quick reminder: number only, in nM, skip the unit.

Request: For ADI-11776 Fab (Fab, V domains shown, Fab fragment; also called Ab3; H76) VH: EVQLLESGGGLVQPGGSLRLSCAASGFTFSKYTMSWVRQAPGKGLEWVSAIVGSGESTYFADSVKGRFTISRDNSKNTLYLQMNSLRAEDTAVYYCAREGGPYYDSSGYFVYYGMDVWGQGTTVTVSS VL: DIQMTQSPSTLSASVGDRVTITCRASQSISSWLAWYQQKPGKAPKLLIYKASSLESGVPSRFSGSGSGTEFTLTISSLQPDDFATYYCQQYDDLPTFGGGTKVEIK , what is its reported Kd?
Response: 0.33

Request: For ADI-11825 Fab (Fab, V domains shown, Fab fragment; also called Ab25) VH: EVQLVESGGGLVQPGGSLRLSCAASGFTFGGYWMSWVRQAPGKGLEWVANINQDGSEEYYVDSVKGRFTISRDNAKNSLYLQMNSLRAEDTAVYYCAREANYYGNVGDDYWGQGTLVTVSS VL: DIQMTQSPSSLSASVGDRVTITCRASQSIYNYLNWYQQKPGKAPKLLIYAASNLHSGVPSRFSGSGSGTDFTLTISSLQPEDFATYYCQQAFHVPITFGGGTKVEIK , what is its reported Kd?
Response: 3.95

Request: For ADI-11809 Fab (Fab, V domains shown, Fab fragment; also called Ab6) VH: EVQLVESGGGLVQPGGSLRLSCAASGFTFPSYWMSWVRQAPGKGLEWVATIKRDGSEKGYVDSVKGRFTISRDNAKNSLYLQMNSLRAEDTAVYYCARPLNAGELDVWGQGTMVTVSS VL: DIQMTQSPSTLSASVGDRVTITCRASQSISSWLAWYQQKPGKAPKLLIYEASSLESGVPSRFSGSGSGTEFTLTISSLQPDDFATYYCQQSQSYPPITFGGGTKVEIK , what is its reported Kd?
Response: 0.3

Where do the numbers come from? From patent US20220380459A1.
